Answer each item with its documented self-cleavage kobs at 640 uM GlcN6P.
B1: glmS ribozyme (parent)
chain: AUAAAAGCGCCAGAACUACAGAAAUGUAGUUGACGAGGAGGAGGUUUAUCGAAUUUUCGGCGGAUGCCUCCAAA

variants of: B1; assay: self-cleavage kobs at 640 uM GlcN6P; higher = faster cleavage; RNA array; conditions: with glucosamine-6-phosphate
Fewer inactive variants are shown than the library holds.

The value of self-cleavage kobs at 640 uM GlcN6P measured for the variant A14C G32U A52C turned out to be < 1e-05 s⁻¹

The value of self-cleavage kobs at 640 uM GlcN6P measured for the variant C11U A39U turned out to be 0.000277 s⁻¹

The value of self-cleavage kobs at 640 uM GlcN6P measured for the variant G13C U30C A36G G41C C70A turned out to be < 1e-05 s⁻¹

The value of self-cleavage kobs at 640 uM GlcN6P measured for the variant G32A C67U turned out to be 0.00023 s⁻¹

The value of self-cleavage kobs at 640 uM GlcN6P measured for the variant A12U A33C A39G C50G A52G turned out to be < 1e-05 s⁻¹

The value of self-cleavage kobs at 640 uM GlcN6P measured for the variant A12U C70U turned out to be 0.0108 s⁻¹

The value of self-cleavage kobs at 640 uM GlcN6P measured for the variant C16A A52G G63U G66U turned out to be < 1e-05 s⁻¹

The value of self-cleavage kobs at 640 uM GlcN6P measured for the variant C10U A15G C67G turned out to be 6.46e-05 s⁻¹

The value of self-cleavage kobs at 640 uM GlcN6P measured for the variant A33C C61A A64U C68U turned out to be < 1e-05 s⁻¹

The value of self-cleavage kobs at 640 uM GlcN6P measured for the variant C16G C71U turned out to be 0.000865 s⁻¹

The value of self-cleavage kobs at 640 uM GlcN6P measured for the variant A6C C16A turned out to be < 1e-05 s⁻¹

The value of self-cleavage kobs at 640 uM GlcN6P measured for the variant G44U U45G turned out to be 0.0033 s⁻¹

The value of self-cleavage kobs at 640 uM GlcN6P measured for the variant C10U A33G G40U turned out to be < 1e-05 s⁻¹

The value of self-cleavage kobs at 640 uM GlcN6P measured for the variant G40U U46G U47G U55A G63U turned out to be < 1e-05 s⁻¹

The value of self-cleavage kobs at 640 uM GlcN6P measured for the variant G41C C61G turned out to be < 1e-05 s⁻¹

The value of self-cleavage kobs at 640 uM GlcN6P measured for the variant G40U U45C turned out to be 0.000101 s⁻¹

The value of self-cleavage kobs at 640 uM GlcN6P measured for the variant C50G G60C U69A turned out to be 0.00011 s⁻¹

The value of self-cleavage kobs at 640 uM GlcN6P measured for the variant C34A G41A turned out to be < 1e-05 s⁻¹

The value of self-cleavage kobs at 640 uM GlcN6P measured for the variant G43U G60U U69G turned out to be < 1e-05 s⁻¹

The value of self-cleavage kobs at 640 uM GlcN6P measured for the variant G41U A52C C71A turned out to be < 1e-05 s⁻¹

The value of self-cleavage kobs at 640 uM GlcN6P measured for the variant G41C A64C turned out to be < 1e-05 s⁻¹

The value of self-cleavage kobs at 640 uM GlcN6P measured for the variant G9A A42C turned out to be < 1e-05 s⁻¹

The value of self-cleavage kobs at 640 uM GlcN6P measured for the variant G38A A48U turned out to be < 1e-05 s⁻¹
